# PROTOCOL_NOTES: Caspase-3/7 induction in HepG2 cells by small molecules, qHTS assay (AID 1346978); also: nearly all actives have a fitted effect of over 15% in size
# APPLIED_CONDITIONS: HepG2 caspase-3/7 activation, Caspase-Glo luminescence, 17 h; series mostly up to 92.4 µM
# Description: National Center for Advancing Translational Sciences [NCATS] NIH Chemical Genomics Center [NCGC] U.S. Environmental Protection Agency [EPA] National Institutes of Environmental Health Sciences [NIEHS] National Toxicology Program [NTP] Assay overview: Apoptosis is a process of programmed cell death and plays a central role in the development of multicellular organisms. […]
Inconclusive results are not listed. Active and inactive are the calls of the source. Calls follow the shape of the dose curve; as a rule, active = well fitted activation curve with a large enough effect in the repeat runs; inconclusive = weak or mixed curves; inactive = flat fitted curve, though single readings scatter.
MEASUREMENT_NAME: outcome

Example entries and their recorded answers appear below.
>>> result("CN(C)CCCOC1(Cc2ccccc2)CCCCCC1")
"inactive"
>>> result("CN(C)[C@@H]1C(=O)C(C(N)=O)=C(O)[C@@]2(O)C(=O)C3=C(O)c4c(O)ccc(Cl)c4[C@@H](O)[C@H]3C[C@@H]12")
"inactive"
>>> result("O=c1cccccc1O")
"inactive"
>>> result("O=C(NO)C1(NS(=O)(=O)c2ccc(Oc3ccc(F)cc3)cc2)CCOCC1")
"inactive"

Lookup: So what does the record say about outcome for CCCCCOC(=O)CCCC ?
Found: inactive

Lookup: So what does the record say about outcome for Cc1cc(CCN2CCN(c3nsc4ccccc34)CC2)cc2c1NC(=O)CC2(C)C ?
Found: inactive

###

# PROTOCOL_NOTES: qHTS assay to identify small molecule antagonists of the retinoic acid receptor (RAR) signaling pathway (AID 1159552; also: nearly all actives have a fitted effect of over 50% in size; also: potency is read from the fitted curve at half-maximal effect)
# APPLIED_CONDITIONS: C3RL4 RARE luciferase reporter, retinol-stimulated, 6 h; series mostly up to 92.4 µM
Records with an inconclusive call do not appear. Activity calls are given as the source filed them. Calls follow the shape of the dose curve; as a rule, active = well fitted inhibition curve with a large enough effect in the repeat runs; inconclusive = weak or mixed curves, or effect the other way; inactive = no such curve, though single readings can be large or run the other way.
MEASUREMENT_NAME: Potency

Example entries and their recorded answers appear below.
>>> result("Cc1cc2c(cc1C(F)(F)F)N(C(=O)Nc1ccc(Oc3cccnc3C)nc1)CC2")
"inactive"
>>> result("CC[C@H]1O[C@]2(CC[C@@H]1C)C[C@@H]1C[C@@H](C/C=C(\\C)C[C@@H](C)/C=C/C=C3\\CO[C@@H]4[C@H](O)C(C)=C[C@@H](C(=O)O1)[C@]34O)O2")
"42.9 µM (active)"
>>> result("OCCN(CCO)c1nc(N2CCCCC2)c2nc(N(CCO)CCO)nc(N3CCCCC3)c2n1")
"inactive"
>>> result("C1CCCC1")
"inactive"
>>> result("N=C1C=CC(=C(c2ccc(N)cc2)c2ccc(N)cc2)C=C1")
"13.7 µM (active)"
>>> result("Cc1cc(O)c(C(C)(C)C)cc1Sc1cc(C(C)(C)C)c(O)cc1C")
"inactive"
>>> result("CCCCCCCCCCCCCCCCCC[N+](C)(C)Cc1ccccc1")
"24.6 µM (active)"
>>> result("O=C(Nc1cccc(C(F)(F)F)c1)c1cc(Br)cc(Br)c1O")
"inactive"

Lookup: So what does the record say about Potency for CCN(CCC#N)c1ccc(N=Nc2c(Cl)cc([N+](=O)[O-])cc2Cl)cc1 ?
Found: inactive

Lookup: So what does the record say about Potency for O=C1c2ccccc2Cc2ccccc21 ?
Found: inactive

Lookup: So what does the record say about Potency for COc1ccc(C(=O)/C(Br)=C\C(=O)O)cc1 ?
Found: inactive

Lookup: So what does the record say about Potency for O=C(c1ccc(F)cc1)C1CCN(CCn2c(=O)[nH]c3ccccc3c2=O)CC1 ?
Found: inactive

Lookup: So what does the record say about Potency for Oc1ccc(N=Nc2ccccc2)cc1 ?
Found: inactive

Lookup: So what does the record say about Potency for O=C1CCCCCN1SSN1CCCCCC1=O ?
Found: 24.3 µM (active)

Lookup: So what does the record say about Potency for Cc1onc(-c2ccccc2Cl)c1C(=O)N[C@@H]1C(=O)N2[C@@H]1SC(C)(C)[C@@H]2C(=O)O ?
Found: inactive

Lookup: So what does the record say about Potency for Fc1ccc(C(c2ccc(F)cc2)N2CCN(C/C=C/c3ccccc3)CC2)cc1 ?
Found: inactive

Lookup: So what does the record say about Potency for CCC(Cl)C(Cl)C(Cl)CC(Cl)C(Cl)C(C)Cl (centres undefined) ?
Found: inactive

Lookup: So what does the record say about Potency for O=C(OCC(COC(=O)c1ccccc1)(COC(=O)c1ccccc1)COC(=O)c1ccccc1)c1ccccc1 ?
Found: inactive

Lookup: So what does the record say about Potency for CCCCCCCCCCn1cc[n+](CCCCCCCCCC)c1C ?
Found: 24.4 µM (active)

###

# PROTOCOL_NOTES: qHTS assay to identify small molecule agonists of the TGF-beta/Smad signaling pathway - cell viability counter screen (AID 1346829); also: nearly all actives have a fitted effect of over 45% in size
# APPLIED_CONDITIONS: SBE-bla HEK293T viability, CellTiter-Glo luminescence, 5 h; series mostly up to 76.8 µM
Inconclusive results are not listed. Calls of active or inactive are those of the source. Calls come from the whole dose curve; as a rule, active = well fitted cell-killing curve with a large enough effect in the repeat runs; inconclusive = weak or mixed curves, or effect the other way; inactive = flat fitted curve, though single readings scatter.
Allowed answers: active, inactive

Lookup: # fetch the recorded call for Cc1cc(O)c(Cl)c(C)c1Cl here
Found: inactive

Lookup: # fetch the recorded call for CN(C)c1ccc(C2(c3ccc(N(C)C)cc3)OC(=O)c3cc(N(C)C)ccc32)cc1 here
Found: inactive

Lookup: # fetch the recorded call for CSc1ccc(/C=C2/C(C)=C(CC(=O)O)c3cc(F)ccc32)cc1 here
Found: inactive

Lookup: # fetch the recorded call for CCN(C(=O)N(CC)c1ccccc1)c1ccccc1 here
Found: inactive

Lookup: # fetch the recorded call for Cc1cccc(CN2CCN(C(c3ccccc3)c3ccc(Cl)cc3)CC2)c1 (configuration not stated) here
Found: inactive

Lookup: # fetch the recorded call for O=C(OCC(COC(=O)c1ccccc1)(COC(=O)c1ccccc1)COC(=O)c1ccccc1)c1ccccc1 here
Found: inactive

Lookup: # fetch the recorded call for Cc1ccc(-n2nc(C(C)(C)C)cc2NC(=O)Nc2ccc(OCCN3CCOCC3)c3ccccc23)cc1 here
Found: inactive

Lookup: # fetch the recorded call for CCCCCCCC/C=C\CCCCCCCCOCCO here
Found: active

Lookup: # fetch the recorded call for Oc1ccc(Cl)cc1Sc1cc(Cl)ccc1O here
Found: inactive

Lookup: # fetch the recorded call for Clc1ccc(C(Cn2ccnc2)OCc2ccc(Sc3ccccc3)cc2)c(Cl)c1 (configuration not stated) here
Found: inactive

Lookup: # fetch the recorded call for Oc1cccc(-c2c3nc(c(-c4cccc(O)c4)c4ccc([nH]4)c(-c4cccc(O)c4)c4nc(c(-c5cccc(O)c5)c5ccc2[nH]5)CC4)C=C3)c1 here
Found: inactive

Lookup: # fetch the recorded call for Cc1cc(N)c(S(=O)(=O)O)cc1Cl here
Found: inactive

Lookup: # fetch the recorded call for CCCN(CCC)c1c([N+](=O)[O-])cc(C(F)(F)F)c(N)c1[N+](=O)[O-] here
Found: active

Lookup: # fetch the recorded call for CCCCCCCCCCCCCCCCCC[N+](C)(C)Cc1ccccc1 here
Found: active

Lookup: # fetch the recorded call for CCN(CCC#N)c1ccc(N=Nc2c(Cl)cc([N+](=O)[O-])cc2Cl)cc1 here
Found: inactive

Lookup: # fetch the recorded call for Cc1c(C)c2c(c(C)c1OC(=O)CCC(=O)O)CC[C@@](C)(CCC[C@H](C)CCC[C@H](C)CCCC(C)C)O2 here
Found: inactive

Lookup: # fetch the recorded call for COc1cc(-c2nc(NC(=O)c3cc4cc(C)cc(C)c4n3CC(=O)O)sc2CCC2CCCCC2)c(OC)cc1Cl here
Found: active

###

# PROTOCOL_NOTES: qHTS RealTime-Glo MT Cell Viability Assay in HepG2 cells - 32 hour (AID 1224877); also: nearly all actives have a fitted effect of over 55% in size
# APPLIED_CONDITIONS: RealTime-Glo luminescence; series mostly up to 76.8 µM
Results filed as inconclusive are left out. The source made the active and inactive calls. Calls follow the shape of the dose curve; as a rule, active = well fitted cell-killing curve with a large enough effect in the repeat runs; inconclusive = weak or mixed curves; inactive = flat fitted curve, though single readings scatter.
Allowed answers: active, inactive

Lookup: # fetch the recorded call for N#CSc1ccc(N)c([N+](=O)[O-])c1 here
Found: inactive

Lookup: # fetch the recorded call for CCN(CC)CCNC(=O)c1c(C)[nH]c(/C=C2\C(=O)Nc3ccc(F)cc32)c1C here
Found: active

Lookup: # fetch the recorded call for Cc1ccc(O)c2ncccc12 here
Found: inactive

Lookup: # fetch the recorded call for CN(C)[C@@H]1C(=O)C(C(N)=O)=C(O)[C@@]2(O)C(=O)C3=C(O)c4c(O)cccc4C[C@H]3C[C@@H]12 here
Found: inactive

Lookup: # fetch the recorded call for CSc1ccc(/C=C2/C(C)=C(CC(=O)O)c3cc(F)ccc32)cc1 here
Found: inactive

Lookup: # fetch the recorded call for [O-][n+]1ccccc1SSc1cccc[n+]1[O-] here
Found: active

Lookup: # fetch the recorded call for CCCCCCCC/C=C\CCCCCCCCOCCO here
Found: inactive

Lookup: # fetch the recorded call for N#CC1(c2ccc(F)cc2)CCC(=O)CC1 here
Found: inactive

Lookup: # fetch the recorded call for Cc1cc(O)c2ccccc2c1O here
Found: active

Lookup: # fetch the recorded call for Cc1cccc(N(C)C(=S)Oc2ccc3c(c2)C2CCC3C2)c1 (stereo not drawn) here
Found: inactive

Lookup: # fetch the recorded call for O=C1CCCc2c1cc1ccc3cccc4ccc2c1c34 here
Found: inactive

Lookup: # fetch the recorded call for N=C1C=CC(=C(c2ccc(N)cc2)c2ccc(N)cc2)C=C1 here
Found: active

Lookup: # fetch the recorded call for O=C(O)c1c(Cl)cccc1Cl here
Found: inactive

Lookup: # fetch the recorded call for Cc1ccc(O)c(C(C)(C)C)c1 here
Found: inactive

Lookup: # fetch the recorded call for CC(C)(C)C1CCC(CC2=C(O)c3ccccc3C(=O)C2=O)CC1 (stereo not drawn) here
Found: inactive

Lookup: # fetch the recorded call for O=c1cccccc1O here
Found: inactive

Lookup: # fetch the recorded call for C[n+]1ccn(Cc2ccccc2)c1 here
Found: inactive

Lookup: # fetch the recorded call for CSc1cnc(C)cn1 here
Found: inactive

This collection of values is drawn from PubChem BioAssay (Tox21).
